# assay_procedure: NCI Yeast Anticancer Drug Screen. Data for the mlh1 rad18 strain (AID 175)
# condition_label: S. cerevisiae mlh1 rad18 strain growth inhibition; at 5.0 µM (retest, dose inferred, filed as 0.5)
The panel holds about 79,000 compounds, 15% with a hit somewhere; the sample as a whole holds those more often. Calls of active or inactive are those of the source. Cut-off read from the data, not from the text of the source: active = growth inhibition above about 70%; inactive = the rest.
Give one outcome, nothing more. List: y for active, n for inactive

Use the examples below as a reference point.
Hi team, can someone confirm the assay call for "COc1ccc2c(C)cc(N/N=C(\C)c3ccccn3)nc2c1" ? n

Param item: "CCCCCCCC(=O)/C=C/c1ccc(C)cc1" n

Further cases:
Hi team, can someone confirm the assay call for "CCOC(=O)/C(=C\c1ccc(Cl)cc1)C(C)=O" ? y

Param item: "O=C(Nc1ccc(/C=C/c2ccc(NC(=O)c3cc(S(=O)(=O)O)c4cccnc4c3O)cc2S(=O)(=O)O)c(S(=O)(=O)O)c1)c1cc(S(=O)(=O)O)c2cccnc2c1O" n

Param item: COc1ccc2c(c1)OC(OC)(c1ccccc1)C(O)(OC)C2=O (stereo not given) n

###

# assay_procedure: NCI Yeast Anticancer Drug Screen. Data for the cln2 rad14 strain (AID 165);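 note: 0% = growth equal to vehicle treated cultures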
# condition_label: S. cerevisiae cln2 rad14 strain, at 50.0 µM, hits give high values
This is part of a sample that, as a whole, favours compounds with a hit. Of some 79,000 tested, about 15% had one in any assay.
assay_metric: growth inhibition (%)
Answers are plain numbers, in %.

Example compounds with recorded growth inhibition:
Consider the compound shown here: "O=C1C=CC(=O)N1c1ccc(Cl)cc1Br" What is its recorded growth inhibition? 92.4

Param item: "CCN(CC)CCOc1c(Cl)c(Cl)c(Cl)c(Cl)c1Cl" 48.5

Param item: "CCOc1c(N=Nc2ccccc2Cl)c(C)nn1C(=S)S" 92.2

Param item: O=C(CC1(O)C(=O)Nc2c(Cl)cc(Cl)cc21)c1ccc(Br)cc1Br (stereo not given) 90.7

Further cases:
Consider the compound shown here: "CC1=CC(=O)[C@@H](O)[C@]2(C)[C@H]3[C@@]4(O)OC[C@]35[C@H]([C@@H](C)[C@H]4O)[C@@H](OC(=O)C(C)(C)CO)C(=O)O[C@@H]5C[C@@H]12" What is its recorded growth inhibition? 90.5

###

# assay_procedure: NCI Yeast Anticancer Drug Screen. Data for the cln2 rad14 strain (AID 165);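 note: 0% = growth equal to vehicle treated cultures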
# condition_label: S. cerevisiae cln2 rad14 strain, at 50.0 µM, hits give high values
This is part of a sample that, as a whole, favours compounds with a hit. Of some 79,000 tested, about 15% had one in any assay.
Please mark Satisfied if the recorded growth inhibition is equal to or greater than 80%, and Not satisfied if it falls below.

Use the examples below as a reference point.
Textbook exercise: given the entry "CCOc1nc(N)nc(C)c1N=Nc1ccc(Cl)cc1" , state whether its growth inhibition is greater than or equal to 80%. Not satisfied

Param item: "O=C(NC1(OC(=O)c2ccc(Cl)cc2)CC1)c1ccc(Cl)cc1" Satisfied

Param item: "CCCCCOC(=O)CSC#N" Satisfied

Consider now this further compound.
Textbook exercise: given the entry O=C(CC1C=Cc2ccccc2N1C(=O)c1ccccc1)c1ccccc1 (stereo not given) , state whether its growth inhibition is greater than or equal to 80%. Not satisfied

###

# assay_procedure: NCI Yeast Anticancer Drug Screen. Data for the cln2 rad14 strain (AID 165);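 note: 0% = growth equal to vehicle treated cultures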
# condition_label: S. cerevisiae cln2 rad14 strain, at 50.0 µM
Compounds without any hit were thinned out: in the full panel of roughly 79,000, 15% have a hit. Activity calls are given as the source filed them. Rule as the data show it: active = growth inhibition above about 70%; inactive = the rest.
Give one outcome, nothing more. List: active, inactive

Use the examples below as a reference point.
Hi team, can someone confirm the assay call for "O=[N+]([O-])c1ccc(-c2ccccc2Cl)c([N+](=O)[O-])c1" ? active

Param item: "c1ccc2cc3nc4ccccc4nc3cc2c1" active

Param item: "CC(/C=C/c1ccc(Cl)c(Cl)c1)=N\NC(N)=S" active

Param item: "Cc1ccc(N2C(=O)C(Cl)=C(Cl)C2=O)cc1" active

Param item: "O=C(CBr)N1c2ccccc2Sc2ccc3ccccc3c21" active

Param item: "CCC[CH2][Sn]([CH2]CCC)([O]C(=O)Cc1ccc(F)cc1)[O]C(=O)Cc1ccc(F)cc1" active

Param item: "Cc1ccccc1C(=O)c1ccc(O)c2ccccc12" inactive

Param item: CC1(C)CC[C@]2(C(=O)O)[C@H](O)C[C@]3(C)C(=CC[C@@H]4[C@@]5(C)CC[C@H](OC6OCC(O)C(O)C6OC6OCC(O)C(O)C6OC6OCC(O)C(O)C6O)C(C)(C)[C@@H]5CC[C@]43C)[C@@H]2C1 (stereo partly specified) inactive

Param item: "ClC(Cl)=C1C(=C(Cl)Cl)C(Cl)(Cl)C1(Cl)Cl" active

Param item: "COc1ccc(OC)c(/C=C/c2ccnc3ccccc23)c1" active

Further cases:
Hi team, can someone confirm the assay call for "Cc1c(F)c(C)c(C(=O)O)c(C)c1F" ? active

Param item: "CCCCCCCCCCCCCCOCCS(=O)(=O)O" inactive

Param item: "O=c1cc(/C=C/c2ccccc2)cccc1O" active

Param item: "COc1ccccc1N=Nc1c(N)nc(N)[nH]c1=O" inactive

Param item: "CC(C)NC(=O)OCc1c2c(n(C)c1COC(=O)NC(C)C)-c1ccccc1CC2" active

###

# assay_procedure: NCI Yeast Anticancer Drug Screen. Data for the mlh1 rad18 strain (AID 175)
# condition_label: S. cerevisiae mlh1 rad18 strain growth inhibition; at 50.0 µM (retest, dose inferred, filed as 5.0)
Compounds without any hit were thinned out: in the full panel of roughly 79,000, 15% have a hit. Active and inactive are the calls of the source. Rule as the data show it: active = growth inhibition above about 70%; inactive = the rest.
Give one outcome, nothing more. List: class 1 = active, class 0 = inactive

Use the examples below as a reference point.
Hi team, can someone confirm the assay call for "C=C(CN1CCOCC1)C(=O)c1ccccc1" ? class 1

Param item: "CCCCC#CC(=O)OCCC" class 0

Param item: O=C(c1ccc([N+](=O)[O-])cc1)C(Br)C(Br)c1ccnc2ccccc12 (centres undefined) class 1

Param item: "CN(C)/C=C(\C(=O)c1ccccc1)n1nc(-c2ccccc2)cc1-c1ccccc1" class 0

Param item: "Clc1ccc([I+]c2cccs2)cc1" class 1

Further cases:
Hi team, can someone confirm the assay call for "CNc1ccc2c(c1)Cc1ccccc1-2" ? class 1

Param item: "ClCc1c(-c2ccccc2)oc(-c2ccccc2)c1CCl" class 1

Param item: O=[N+]([O-])C1CCC(C2=CSC3CCCCC3N2)CC1 (centres undefined) class 0

Param item: "CC(=O)n1c(=S)n(C(C)=O)c2ccccc21" class 1

###

# assay_procedure: NCI Yeast Anticancer Drug Screen. Data for the rad50 strain (AID 155);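 note: 0% = growth of vehicle-only cultures of the same strain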
# condition_label: S. cerevisiae rad50 strain growth inhibition; at 50.0 µM (retest, dose inferred, filed as 5.0); hits give high values
This is part of a sample that, as a whole, favours compounds with a hit. Of some 79,000 tested, about 15% had one in any assay.
assay_metric: growth inhibition (%)
Numbers only, in %.

Hi, could you look up growth inhibition for each item in my list?
1. Cn1c(=S)c2[nH]c(SCCN3CCCC3)nc2n(C)c1=O
2. CC(O[Si](c1ccccc1)(c1ccccc1)C(C)(C)C)[C@H](NC(=O)OC(C)(C)C)C(=O)O[Si](c1ccccc1)(c1ccccc1)C(C)(C)C (stereo partly specified)

[99, 99]

Hi, could you look up growth inhibition for each item in my list?
1. Cc1cc(N2C(=O)CCSC2=S)c([N+](=O)[O-])cc1C
2. CCCCCCCCC[n+]1cccc(C(=O)c2ccccc2)c1
3. N#CC(Cc1ccc(CC(C#N)(c2ccccc2)c2ccccn2)cc1)(c1ccccc1)c1ccccn1 (stereo unspecified)
4. COC1=C(C)C(=O)C2=C(C1=O)C1C3CC4=C(C(=O)C(OC)=C(C)C4=O)C(CNC(=O)C(C)=O)N3C(C#N)C(C2)N1C (stereo unspecified)
5. Cn1c2c(c3ccccc31)CCN(CCN1CCN(c3ccccc3)CC1)C2=O

1: 99; 2: 53; 3: 3; 4: 98; 5: 31

Hi, could you look up growth inhibition for each item in my list?
1. N/C(=N\N=C\c1cc(I)cc(I)c1O)NO
2. O=C1/C(=C/c2ccc(Cl)cc2)CCC/C1=C\c1ccc(O)c(CN2CCCCC2)c1
3. COC12C(COC(N)=O)C3=C(C(=O)C(C)=C(N)C3=O)N1CC1C2N1C(=O)c1ccc(Cl)cc1 (stereo unspecified)
4. O=c1oc2c/c(=C\c3ccccc3)c(=O)c3cccc1c3-2

98
52
57
97

###

Field: growth inhibition. Provide a value for each of the molecules that follow.
# assay_procedure: NCI Yeast Anticancer Drug Screen. Data for the cln2 rad14 strain (AID 165);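 note: 0% = growth equal to vehicle treated cultures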
# condition_label: S. cerevisiae cln2 rad14 strain, at 50.0 µM (retest, dose inferred, filed as 5.0), hits give high values
This is part of a sample that, as a whole, favours compounds with a hit. Of some 79,000 tested, about 15% had one in any assay.
Numbers only, in %.

Consider the molecule shown here: "O=C1NC(=S)S/C1=C/c1ccc(/C=C2/SC(=S)NC2=O)cc1" What is its recorded growth inhibition? -22

Param item: O=C1c2ccccc2C2N1CCCN2C(=O)c1sc2ccccc2c1Cl (stereo not given) 96

Param item: COc1cccc(C2CC(C)(O)Oc3cc4c(cc32)OCO4)c1 (stereo not given) 44

Param item: "O=C(O)CSc1ccc(N=C=S)cc1" 69

Param item: N#CC1C(=O)NC(=O)CC1c1ccccc1 (stereo not given) 99

Param item: COC(=O)C1=C(/C=C/C(C)=O)NC(C)=C(C(=O)OC(C)C)C1c1ccccc1Cl (stereo not given) 95

Hi, could you look up growth inhibition for each item in my list?
1. CCCCCCCCCCCCNC(=O)C[n+]1cccc(C(N)=O)c1
2. c1ccc(-c2n[nH]c3c4ccccc4c4ccccc4c23)cc1
3. CCC/C=C1/OC(=O)C2=C[C@H]3CC[C@]21[C@]1(OC(=O)C2=C1CCC=C2)[C@H]3CCC

1: 67; 2: 94; 3: 96
